EC50: recorded values
Study system: 5HT2C receptors (Homo sapiens)
Sequence (P28335 33-458): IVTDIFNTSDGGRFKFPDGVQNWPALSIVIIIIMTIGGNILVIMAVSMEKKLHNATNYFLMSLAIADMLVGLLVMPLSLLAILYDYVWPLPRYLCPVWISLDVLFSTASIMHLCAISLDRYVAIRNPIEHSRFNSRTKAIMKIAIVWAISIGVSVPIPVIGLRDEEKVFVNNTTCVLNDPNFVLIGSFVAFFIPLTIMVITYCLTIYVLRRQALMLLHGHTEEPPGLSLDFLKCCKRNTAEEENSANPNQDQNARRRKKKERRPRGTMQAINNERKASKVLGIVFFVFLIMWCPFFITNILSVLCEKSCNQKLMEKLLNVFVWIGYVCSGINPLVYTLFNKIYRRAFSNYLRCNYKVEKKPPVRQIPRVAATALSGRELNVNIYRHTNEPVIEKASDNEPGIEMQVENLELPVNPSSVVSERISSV
Method summary: Human 5-HT2C functional assay in CHO-K1 cells (calcium flux, FLIPR)
Type: cell-based
Design: expressed in transfected cells; host or cells: CHO-K1 cells
Stated conditions: CHO-K1 cells over-expressing 5HT2C, calcium flux; read-out: EC50 (μM), 5-HT2c Agonist Activity
Provide the reading as a plain figure in µM.

Dear colleague, I am looking for the recorded EC50 of the following compound: CC(=O)c1ccc(-c2ccc3c(c2)N2CCNC[C@@H]2CCO3)cc1 [Example 199]
0.9

For O=C1CC2CNCCN2c2cc(-c3cccc(-n4cccn4)c3)ccc2N1 (stereo not drawn) [Example 73] , what is its reported EC50?
0.03

Dear colleague, I am looking for the recorded EC50 of the following compound: c1ccc(-c2cccc3c2OCC[C@H]2CNCCN32)cc1 [Example 223]
0.02

Given the entry FCCN1CCN2c3cccc(F)c3OCC[C@H]2C1 [Example 245] , report its measured EC50.
0.009

Requested field: EC50. Item: Cn1cc(-c2ccc3c(c2)N2CCNCC2CC(=O)N3)cn1 (stereo not drawn) [Example 60]
0.4

---
EC50 for O=C1C[C@H]2CNCCN2c2cc(OCCc3cccc(F)c3)ccc2N1 [Example 164] ?
0.007

What value of measured EC50 is listed for O=C1CC2CNCCN2c2cc(COc3cccc(F)c3)ccc2N1 (stereo not drawn) [Example 114] ?
0.05

Quick one: EC50 of CS(=O)(=O)c1ccccc1-c1ccc2c(c1)N1CCNC[C@@H]1CCO2 [Example 195] ?
0.007

// lookup EC50 for CCc1cccc(-c2ccc3c(c2)N2CCNCC2CC(=O)N3)c1 (stereo not drawn) [Example 91]
0.01

* * *

Study system: 5HT2C receptors (Homo sapiens)
Method summary: Human 5-HT2C functional assay in CHO-K1 cells (calcium flux, FLIPR)
Type: cell-based
Set-up: expressed in transfected cells; host or cells: CHO-K1 cells
Stated conditions: CHO-K1 cells over-expressing 5HT2C, calcium flux; read-out: EC50 (μM), 5-HT2c Agonist Activity
Measurement label: EC50 (µM)
Provide only the numeric value, understood in µM.

Looking for the measured EC50 of O=C1CC2CNCCN2c2cc(OCCc3ccccc3)ccc2N1 (centres unmarked) [Example 158] , can you help?
0.025

Can you share its EC50? I mean this compound: Fc1cccc(-c2ccc3c(c2)N2CCNC[C@@H]2CCO3)c1 [Example 204]
0.05

Give its EC50 value. Item: C[C@@H](Cc1ccccc1)Oc1ccc2c(c1)N1CCNC[C@H]1CC(=O)N2 [Example 167]
1

Report EC50 for O=C1CC2CNCCN2c2cc(-c3cccc(OCc4ccccc4)c3)ccc2N1 (centres unmarked) [Example 95] please.
0.02

Look up EC50: O=C1C[C@H]2CNCCN2c2cc(OCC3CC3)ccc2N1 [Example 170]
0.02

Continuing:
Given O=C1CC2CNCCN2c2cc(-c3cccc(F)c3)ccc2N1 (centres unmarked) [Example 61] , state its recorded EC50.
0.1

Item under review: C[C@@H](Oc1ccc2c(c1)N1CCNCC1CC(=O)N2)c1ccccc1F (some centres unmarked) [Example 161] . Reported EC50?
0.01

* * *

Study system: 5HT2B receptors (Homo sapiens)
Construct: expressed in transfected cells; host or cells: CHO-K1 cells
Sequence (P41595 whole entry): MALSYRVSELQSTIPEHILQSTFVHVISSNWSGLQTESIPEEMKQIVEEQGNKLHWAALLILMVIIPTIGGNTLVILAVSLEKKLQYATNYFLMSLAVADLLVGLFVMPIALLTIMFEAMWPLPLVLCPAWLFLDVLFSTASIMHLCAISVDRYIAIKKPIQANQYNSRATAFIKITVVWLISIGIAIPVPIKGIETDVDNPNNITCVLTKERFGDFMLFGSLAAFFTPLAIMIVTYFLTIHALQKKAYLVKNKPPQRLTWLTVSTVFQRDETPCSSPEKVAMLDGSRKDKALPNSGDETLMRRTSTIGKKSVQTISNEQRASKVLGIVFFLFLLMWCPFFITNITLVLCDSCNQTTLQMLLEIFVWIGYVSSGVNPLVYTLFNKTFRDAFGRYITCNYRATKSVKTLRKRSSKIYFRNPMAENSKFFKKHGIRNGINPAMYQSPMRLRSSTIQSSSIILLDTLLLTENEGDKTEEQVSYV
Method summary: Human 5-HT2B functional assay in CHO-K1 cells (calcium flux, FLIPR)
Format: cell-based
Stated conditions: CHO-K1 cells; percentage relative to the effect of serotonin; read-out: Emax (%), 5-HT2B Agonist Activity
Measurement label: Emax
I'd appreciate it if you wrote the number followed by its unit.

Given the entry O=C1CC2CNCCN2c2cc(COc3cccc(F)c3)ccc2N1 (stereo not shown) , report its measured Emax.
30%

More entries:
Which Emax value belongs to O=C1CC2CNCCN2c2cc(OCc3cccc(F)c3)ccc2N1 (stereo not shown) ?
77%

Given the compound C[C@@H](Oc1ccc2c(c1)N1CCNCC1CC(=O)N2)c1ccccc1F (stereo partly shown) , what is its reported Emax?
20%

Data origin, for the record: patent US8546377B2
